Each record here notes measured Kd.
Biological target: T1, human GPC3-his tag protein (human, UniProt P51654 25-559, limits assumed)
T1 construct: recombinant soluble antigen used as analyte in all Biacore runs; also called recombinant GPC3 protein; rhGPC3-His; not shown: His tag
Assay: SPR Biacore 8K, mAb captured, affinity ranking
Record the value in nM, omitting the unit from your answer.

# BINDER, UOM, Kd
measured = [
    ("Hu 52H5D3B8-4 (antibody, V domains shown, humanized 52H5D3B8; also called 52H5D3B8 VH1 + VL1) VH: EVQLVQSGAEVKKPGASVKVSCKASGYTFTDYEMHWVRQAPGQGLEWMGAIHPGSGGTAYNQKFKGRVTMTRDTSISTAYMELSRLRSDDTAVYYCTRFYSYAYWGQGTLVTVSS VL: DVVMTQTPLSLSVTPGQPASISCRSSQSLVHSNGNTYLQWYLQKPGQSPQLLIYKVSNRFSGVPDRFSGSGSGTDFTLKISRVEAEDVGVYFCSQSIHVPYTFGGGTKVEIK", "nM", 4.6),
]

Continue with the next binder.
Report Kd for Hu 52H5D3B8-1 (antibody, V domains shown, humanized 52H5D3B8; also called 52H5D3B8 VH0 + VL0) VH: EVQLVQSGAEVKKPGASVKVSCKASGYTFTDYEMHWVRQAPGQGLEWMGAIHPGSGGTAYNQKFKGRVTMTRDTSISTAYMELSRLRSDDTAVYYCARFYSYAYWGQGTLVTVSS VL: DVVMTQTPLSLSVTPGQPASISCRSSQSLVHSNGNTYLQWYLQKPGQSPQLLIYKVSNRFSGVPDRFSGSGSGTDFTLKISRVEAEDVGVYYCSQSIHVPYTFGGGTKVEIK
6.33
